Target: HMG-CoA-Reduktase in HEP G2-Zellkulturen (Homo sapiens, UniProt P04035)
Sequence (P04035 1-888): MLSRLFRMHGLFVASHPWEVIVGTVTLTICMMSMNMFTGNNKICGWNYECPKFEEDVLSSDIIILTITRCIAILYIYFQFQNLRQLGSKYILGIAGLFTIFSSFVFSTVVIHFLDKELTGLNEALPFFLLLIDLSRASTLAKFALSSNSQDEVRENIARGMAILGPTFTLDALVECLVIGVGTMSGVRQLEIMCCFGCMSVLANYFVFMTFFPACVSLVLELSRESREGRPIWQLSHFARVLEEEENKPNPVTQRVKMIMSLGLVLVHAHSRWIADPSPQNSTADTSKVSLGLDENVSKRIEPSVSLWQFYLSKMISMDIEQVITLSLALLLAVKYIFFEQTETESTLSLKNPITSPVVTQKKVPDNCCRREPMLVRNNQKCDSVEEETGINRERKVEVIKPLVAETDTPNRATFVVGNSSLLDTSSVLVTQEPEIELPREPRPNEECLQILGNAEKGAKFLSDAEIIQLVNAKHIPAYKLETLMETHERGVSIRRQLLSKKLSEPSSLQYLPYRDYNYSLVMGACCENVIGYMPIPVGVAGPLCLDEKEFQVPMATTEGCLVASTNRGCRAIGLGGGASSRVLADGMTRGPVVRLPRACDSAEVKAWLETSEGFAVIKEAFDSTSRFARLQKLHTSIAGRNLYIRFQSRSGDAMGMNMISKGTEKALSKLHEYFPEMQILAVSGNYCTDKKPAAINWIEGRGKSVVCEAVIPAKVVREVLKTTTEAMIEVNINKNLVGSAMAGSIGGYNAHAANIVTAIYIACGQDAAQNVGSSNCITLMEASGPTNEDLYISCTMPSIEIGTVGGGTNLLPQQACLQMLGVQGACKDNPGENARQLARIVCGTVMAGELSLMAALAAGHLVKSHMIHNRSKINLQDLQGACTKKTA
Experiment: Inhibition of 14C-sodium acetate incorporation into cholesterol in HEP G2 cell cultures
Assay type: cell-based
Conditions: Mevinolin-Natrium = 100; value outside parentheses (matches ratio of IC50 values)
MEASURED_ATTRIBUTE: relative Wirkstärke

CC(C)c1cc(-c2ccc(F)cc2)cc(-c2ccc(F)cc2)c1OC[C@@H](O)C[C@@H](O)CC(=O)O :: 56
CC(C)c1cc(-c2ccc(F)cc2)c(OC[C@@H](O)C[C@@H](O)CC(=O)O)c(C(C)C)c1 :: 185
CC(C)c1cc(-c2ccccc2)cc(-c2ccc(F)cc2)c1OC[C@@H](O)C[C@@H](O)CC(=O)O :: 53
